# Test system: Plasmodium berghei
# ASSAY SUMMARY: Antimalarial effect against trophozoite-induced Plasmodium berghei in mice (Mus musculus) at 160 mg/kg subcutaneous dose
# Type: functional
Please respond with reported MST for every item in the list.
Answers are plain numbers, in days.

Use the examples below as a reference point.
[
  {
    "COMPOUND": "CN(C)c1ccc(Nc2nc(NC3CCC(N(C)C)CC3)nc3ccccc23)cc1 (stereo not drawn)",
    "ASSAY SYSTEM": "Plasmodium berghei",
    "UNIT SPEC": "days",
    "MST": 0.6
  },
  {
    "COMPOUND": "CCN(CC)CCNc1nc(Nc2ccc(Cl)c(Cl)c2)nc2ccccc12",
    "ASSAY SYSTEM": "Plasmodium berghei",
    "UNIT SPEC": "days",
    "MST": 7
  }
]

Then this compound:
(Q) Could you tell me which MST is on file for "CSc1ccc(Nc2nc(NCCCN3CCCC3)c3ccccc3n2)cc1" ?
(A) 6.8
